Items are presented alongside their recorded yeast fitness (ln).
B1: tRNA (parent)
chain: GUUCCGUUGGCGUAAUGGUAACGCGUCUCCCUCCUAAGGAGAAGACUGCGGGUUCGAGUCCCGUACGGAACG

Variants of: B1
Test: yeast fitness, log relative to wild type (ln ratio); higher = fitter; tRNA-Arg(CCU), competitive growth, 37 C, 1 M NaCl

>  <Mutation id>
U2C G6A C27U C46U C66A A70U

>  <yeast fitness (ln)>
-0.0453

$$$$
>  <Mutation id>
U2G C27U C46U C66A A69G A70U

>  <yeast fitness (ln)>
-0.0493

$$$$
>  <Mutation id>
G6U C27U C46U A69G

>  <yeast fitness (ln)>
-0.15

$$$$
>  <Mutation id>
G1A U2G G6U C27U C66A A70U C71U

>  <yeast fitness (ln)>
-0.168

$$$$
>  <Mutation id>
U2G G6U C46U C66A

>  <yeast fitness (ln)>
-0.0648

$$$$
>  <Mutation id>
A43C C66A A69G A70G C71U

>  <yeast fitness (ln)>
-0.159

$$$$
